System: OCC2 (CD44-/MyD88- ovarian cancer cells)
Test: IC50 against chemosensitive ovarian cancer cells OCC2
Format: cell-based, human
Conditions: read-out: IC50 (percentage of viable cells)
Measured attribute: IC50
Field note: include the unit after the figure.

# lookup: IC50 of COc1cc(C2COc3c(ccc(O)c3C)C2c2ccc(O)cc2)cc(OC)c1O (single isomer, unassigned)
27 nM
